# Read-out: Monocyte Chemoattractant Protein-1 (MCP1), CCL2 (gene 6347)
# Assay Protocol: BSK_3C_MCP1: BioMAP Diversity Plus: 3C Assay for Monocyte Chemoattractant Protein-1 (MCP1) Biomarker Activity (AID 2283017)
# Recorded Conditions: primary human endothelial cells (HUVEC); actives raise or lower the signal
Activity calls are given as the source filed them. Rule for the calls: active = hit-call score of the fitted dose curve at least 0.9, where 1 is the maximum; inactive = score below 0.9.
Outcome codes: TRUE (active), FALSE (inactive)

CC=CC(=O)C1=C(C)C=CCC1(C)C    FALSE
NC(=O)c1c(Cl)cccc1Cl    FALSE
C=CC(=O)OCC(CO)(COC(=O)C=C)COC(=O)C=C    TRUE
c1ccc(Sc2ccccc2)cc1    TRUE
CC(C)(CO)CO    FALSE
c1ccc2c(c1)-c1ccc3ccc4cccc5cc-2c1c3c45    FALSE
CC(=O)OC(C)(C)C1CC=C(C)CC1 (stereo not given)    TRUE
CCCCCCCCCC(=O)OCC    TRUE
CC1(C)[C@H](C=C(Cl)Cl)[C@H]1C(=O)OCc1cccc(Oc2ccccc2)c1    FALSE
C=C1CC/C=C(\C)CC[C@@H]2[C@@H]1CC2(C)C    TRUE
